Provenance of the data: ChEMBL document CHEMBL4665827

Molecular target: UniProtKB O14788
Sequence (O14788 whole entry): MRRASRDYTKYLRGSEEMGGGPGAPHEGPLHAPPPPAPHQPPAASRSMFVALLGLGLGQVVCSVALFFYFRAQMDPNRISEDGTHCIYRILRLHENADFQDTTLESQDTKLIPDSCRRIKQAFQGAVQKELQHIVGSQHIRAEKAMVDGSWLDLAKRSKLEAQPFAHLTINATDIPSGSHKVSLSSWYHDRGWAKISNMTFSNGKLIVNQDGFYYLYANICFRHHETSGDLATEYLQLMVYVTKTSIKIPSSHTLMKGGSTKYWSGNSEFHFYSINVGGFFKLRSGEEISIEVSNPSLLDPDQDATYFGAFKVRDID
Test: Binding affinity to GST-fused human RANKL extracellular domain (Lys159 to Asp317 residues) expressed in Escherichia coli BL21(DE3) pLysS by fluorescence spectrophotometric assay
Settings: read-out: Kd
pKd: −log10 of the molar value.
Below, each entry is listed with its recorded pKd.
Parameter: pKd

                                 mol_smiles  lt_gt_eq  measurement
0  O=C(NCCCCNC(=O)c1cn(S(=O)(=O)c2ccccc2)c2ccccc12)c1ccc2ccccc2c1         =         4.74
1  CN(CCN(C)C(=O)c1cn(S(=O)(=O)c2ccccc2)c2ccccc12)C(=O)c1ccccc1         <         4.82
2  CN(CCN(C)C(=O)c1cn(-c2cccc(N)c2)c2ccccc12)C(=O)c1coc2ccccc2c1=O         =         4.75
3  Cc1ccc2occ(CN(C)CCN(C)Cc3cn(S(=O)(=O)c4ccccc4)c4ccccc34)c(=O)c2c1         =         5.18
4  CN(CCN(C)C(=O)c1cn(S(=O)(=O)c2ccccc2)c2ccccc12)C(=O)c1coc2ccccc2c1=O         =         5.34
5  O=C(c1coc2ccccc2c1=O)N1CCN(C(=O)c2cn(-c3cccc([N+](=O)[O-])c3)c3ccccc23)CC1         <         4.60
6  O=C(c1ccccc1)N1CCN(Cc2cn(-c3cccc(C(F)(F)F)c3)c3ccccc23)CC1         =         4.73
7  Nc1cccc(-n2cc(C(=O)N3CCN(C(=O)c4coc5ccccc5c4=O)CC3)c3cc(N)ccc32)c1         =         5.03
